Entries and their abundance fitness
B1: FERM and PDZ domain-containing protein 4, residues 75 to 154; numbered along this chain, Q14CM0 (parent)
chain: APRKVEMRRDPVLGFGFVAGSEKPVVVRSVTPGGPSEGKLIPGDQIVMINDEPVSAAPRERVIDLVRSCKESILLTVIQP

Variants of: B1
Test: abundance fitness (aPCA) (normalised: wild type 0, dead -1); higher = more abundant; growth selection in yeast, the domain comes from the species named
Details: Homo sapiens

>  <changes>
D10F

>  <abundance fitness>
-0.535

$$$$
>  <changes>
K39Q

>  <abundance fitness>
-0.032

$$$$
>  <changes>
S36E

>  <abundance fitness>
-0.866

$$$$
>  <changes>
L13F

>  <abundance fitness>
-0.046

$$$$
>  <changes>
P42K

>  <abundance fitness>
-0.108

$$$$
>  <changes>
K70T

>  <abundance fitness>
-0.098

$$$$
>  <changes>
D64C

>  <abundance fitness>
-0.295

$$$$
>  <changes>
V66E

>  <abundance fitness>
-0.427

$$$$
>  <changes>
G20S

>  <abundance fitness>
-0.002

$$$$
>  <changes>
G33N

>  <abundance fitness>
-0.089

$$$$
>  <changes>
I78C

>  <abundance fitness>
-0.029

$$$$
>  <changes>
G34C

>  <abundance fitness>
-0.552

$$$$
>  <changes>
P32M

>  <abundance fitness>
-0.039

$$$$
>  <changes>
T31N

>  <abundance fitness>
-0.055

$$$$
>  <changes>
D51N

>  <abundance fitness>
-0.047

$$$$
>  <changes>
P80G

>  <abundance fitness>
-0.074

$$$$
>  <changes>
V62P

>  <abundance fitness>
-0.841

$$$$
>  <changes>
E60H

>  <abundance fitness>
-0.038

$$$$
>  <changes>
P58Q

>  <abundance fitness>
-0.091

$$$$
>  <changes>
R28G

>  <abundance fitness>
-0.014

$$$$
>  <changes>
K4S

>  <abundance fitness>
-0.084

$$$$
>  <changes>
L74T

>  <abundance fitness>
-0.014

$$$$
>  <changes>
V54L

>  <abundance fitness>
-0.207

$$$$
>  <changes>
V66S

>  <abundance fitness>
-0.569

$$$$
>  <changes>
K70Y

>  <abundance fitness>
-0.153

$$$$
>  <changes>
V25L

>  <abundance fitness>
0.006

$$$$
>  <changes>
E37V

>  <abundance fitness>
-0.057

$$$$
>  <changes>
M7R

>  <abundance fitness>
-0.967

$$$$
>  <changes>
R61Q

>  <abundance fitness>
-0.005

$$$$
>  <changes>
G16S

>  <abundance fitness>
-0.813

$$$$
>  <changes>
D51K

>  <abundance fitness>
-0.044

$$$$
